test: High Throughput (HT) Metabolic Stability Panel, mouse liver microsomes; conditions: 0.5 μM compound, mouse liver microsomes, 10 min incubation
Consider the following compounds and their measured 0.5 μM MsLM (% Remaining) readings.
# output: bare number, implied unit %

compound	0.5 μM MsLM (% Remaining) (%)
CN1C(=O)[C@@H](NC(=O)[C@H](CCC(F)(F)F)[C@H](CC(F)(F)F)C(N)=O)N=C(c2ccccc2)c2ccccc21 [Example 4]	91
COc1ccc2c(c1)N(C)C(=O)[C@@H](NC(=O)[C@H](CCC(F)(F)F)[C@H](CCC(F)(F)F)C(N)=O)N=C2c1ccccc1 [Example 7]	72

// field: 0.5 μM MsLM (% Remaining); key: NC(=O)[C@@H](CCC(F)(F)F)[C@@H](CCC(F)(F)F)C(=O)N[C@H]1N=C(c2ccccc2)c2ccc(Cl)c(Cl)c2NC1=O [Example 16] ; value = 91

----------
test: High Throughput (HT) Metabolic Stability Panel, mouse liver microsomes; conditions: 0.5 μM compound, mouse liver microsomes, 10 min incubation
Consider the following compounds and their measured 0.5 μM MsLM (% Remaining) readings.
Please append the unit to your numeric answer.

compound	0.5 μM MsLM (% Remaining)
CCCC[C@H](C(N)=O)[C@@H](CC(C)C)C(=O)N[C@H]1N=C(c2ccc(Cl)cc2)c2ccccc2N(C)C1=O [Comparative Compound 24, reference compound]	13%
NC(=O)[C@@H](CCCC(F)(F)F)[C@@H](CCC(F)(F)F)C(=O)N[C@H]1N=C(c2ccccc2)c2ccccc2NC1=O	97%
COCCNc1cccc2c1NC(=O)[C@@H](NC(=O)[C@H](CCC(F)(F)F)[C@H](CCC(F)(F)F)C(N)=O)N=C2c1ccccc1	82%

// field: 0.5 μM MsLM (% Remaining); key: CN1C(=O)[C@@H](NC(=O)[C@H](CCC(F)(F)F)[C@H](CCC(F)(F)F)C(N)=O)N=C(c2ccccc2)c2cc(F)ccc21 ; value = 98%

// field: 0.5 μM MsLM (% Remaining); key: C=CC[C@H](C(N)=O)[C@@H](CC(C)C)C(=O)N[C@H]1N=C(c2ccccc2)c2ccccc2N(CCC)C1=O [Comparative Compound 25, reference compound] ; value = 0.18%

// field: 0.5 μM MsLM (% Remaining); key: COc1ccc2c(c1)NC(=O)[C@@H](NC(=O)[C@H](CCC(F)(F)F)[C@H](CCC(F)(F)F)C(N)=O)N=C2c1ccccc1 ; value = 97%

// field: 0.5 μM MsLM (% Remaining); key: NC(=O)[C@@H](CCC(F)(F)F)[C@@H](CCC(F)(F)F)C(=O)N[C@H]1N=C(c2ccccc2)c2cccc(F)c2NC1=O ; value = 96%

// field: 0.5 μM MsLM (% Remaining); key: NC(=O)[C@@H](CCC(F)(F)F)[C@@H](CCC(F)(F)F)C(=O)N[C@H]1N=C(c2ccccc2)c2cccc(Cl)c2NC1=O ; value = 100%

// field: 0.5 μM MsLM (% Remaining); key: COc1ccc2c(c1)C(c1ccccc1)=N[C@H](NC(=O)[C@H](CCC(F)(F)F)[C@H](CCC(F)(F)F)C(N)=O)C(=O)N2C ; value = 87%

// field: 0.5 μM MsLM (% Remaining); key: CN1C(=O)[C@@H](NC(=O)[C@H](CCC(F)(F)F)[C@H](CCC(F)(F)F)C(N)=O)N=C(c2ccccc2)c2cc(Cl)ccc21 ; value = 100%

// field: 0.5 μM MsLM (% Remaining); key: COc1ccc2c(c1)C(c1ccccc1)=N[C@H](NC(=O)[C@H](CCC(F)(F)F)[C@H](CCC(F)(F)F)C(N)=O)C(=O)N2 ; value = 95%

// field: 0.5 μM MsLM (% Remaining); key: CN1C(=O)[C@@H](NC(=O)[C@H](CCC(F)(F)F)[C@H](CCC(F)(F)F)C(N)=O)N=C(c2ccccc2)c2ccc(Cl)cc21 ; value = 98%

// field: 0.5 μM MsLM (% Remaining); key: COc1c(C#N)ccc2c1NC(=O)[C@@H](NC(=O)[C@H](CCC(F)(F)F)[C@H](CCC(F)(F)F)C(N)=O)N=C2c1ccccc1 ; value = 93%

// field: 0.5 μM MsLM (% Remaining); key: C=CC[C@H](C(N)=O)[C@@H](CC(C)C)C(=O)N[C@H]1N=C(c2ccccc2)c2cc(Cl)ccc2N(C)C1=O [Comparative Compound 23, reference compound] ; value = 9.0%
